System: crabgrass, large
Experiment: Test A pre-/postemergence herbicide test
Format: in vivo, Digitaria sanguinalis
Conditions: Postemergence, 500 g ai/ha; 0 to 100 scale (0 no effect, 100 complete control)
Plant response rating, Crabgrass, Large reference

{"compound": "Cc1cccc(C2CN(C(=O)OC(C)(C)C)C(=O)C2C(=O)Nc2ccccc2F)c1 (stereo not drawn)", "targetEntity": "crabgrass, large", "Plant response rating, Crabgrass, Large": 20}
{"compound": "O=C1NCC(c2ccccc2Cl)C1C(=O)Nc1ccccc1F (racemic)", "targetEntity": "crabgrass, large", "Plant response rating, Crabgrass, Large": 60}
{"compound": "O=C1NCC(c2cccc(OC(F)(F)F)c2)C1C(=O)Nc1ccccc1F (stereo not drawn)", "targetEntity": "crabgrass, large", "Plant response rating, Crabgrass, Large": 90}
